# Test system: Streptococcus pyogenes
# protocol-details: Minimum inhibitory concentration was evaluated in vitro against Streptococcus pyogenes C 203
# Type: functional
# test-settings: Streptococcus pyogenes; read-out: MIC
observation-type: MIC (µg/mL)
Dear colleague, please return just the value in µg/mL, with no unit written.

molecule: CCNCC1CCN(c2c(F)c(N)c3c(=O)c(C(=O)O)cn(C4CC4)c3c2F)C1 (stereo not given)
MIC / µg/mL: 0.013

molecule: CCn1cc(C(=O)O)c(=O)c2cc(F)c(N3CCC(C(C)N)C3)c(OC)c21 (racemic)
MIC / µg/mL: 0.003

molecule: NC1CCN(c2cc3c(cc2F)c(=O)c(C(=O)O)cn3C2CC2)C1 (stereo not given)
MIC / µg/mL: 0.1

molecule: CCn1cc(C(=O)O)c(=O)c2cc(F)c(N3CCC(CN)C3)c(F)c21 (stereo not given)
MIC / µg/mL: 0.05

Exam item: Can you share its MIC? I mean this molecule: CN[C@H](C)[C@@H]1CCN(c2c(F)cc3c(=O)c(C(=O)O)cn(C4CC4)c3c2OC)C1
Marked response: 0.025

###

# System: Enterococcus faecalis
# protocol-details: Minimum inhibitory concentration was evaluated in vitro against Enterococcus faecalis MGH-2
# Format: functional
observation-type: MIC

Example results:
compound: CN[C@H](C)[C@H]1CCN(c2c(F)c(N)c3c(=O)c(C(=O)O)cn(C4CC4)c3c2F)C1
reported-result: 0.2 µg/mL

compound: CC(N)C1CCN(c2c(F)cc3c(=O)c(C(=O)O)cn(C4CC4)c3c2C(F)(F)F)C1 (racemic)
reported-result: 0.025 µg/mL

compound: CN[C@H](C)[C@H]1CCN(c2cc3c(cc2F)c(=O)c(C(=O)O)cn3C2CC2)C1 (mixture of isomers)
reported-result: 0.1 µg/mL

Please turn your attention to the following entry.
Exam item: Field: MIC (Enterococcus faecalis). Entry: CN[C@@H](C)[C@@H]1CCN(c2nc3c(cc2F)c(=O)c(C(=O)O)cn3C2CC2)C1
Marked response: 0.2 µg/mL

###

# Test system: Streptococcus pneumoniae
# protocol-details: Minimum inhibitory concentration was evaluated in vitro against Streptococcus pneumoniae SV-1
# Assay type: functional
Catalogue of compounds with associated MIC
Value expressed in mg/L; do not type the unit.

compound: CCN[C@@H](C)[C@@H]1CCN(c2nc3c(cc2F)c(=O)c(C(=O)O)cn3C2CC2)C1
target-under-test: Streptococcus pneumoniae
MIC, mg/L: 0.1

compound: CN[C@@H](C)[C@@H]1CCN(c2nc3c(cc2F)c(=O)c(C(=O)O)cn3C2CC2)C1
target-under-test: Streptococcus pneumoniae
MIC, mg/L: 0.1

compound: CCN[C@@H](C)[C@@H]1CCN(c2nc3c(cc2F)c(=O)c(C(=O)O)cn3C2CC2)C1 (racemic)
target-under-test: Streptococcus pneumoniae
MIC, mg/L: 0.025

compound: CC(N)C1CCN(c2c(F)cc3c(=O)c(C(=O)O)cn(C4CC4)c3c2C(F)(F)F)C1 (stereo in doubt; 36F-R,R)
target-under-test: Streptococcus pneumoniae
MIC, mg/L: 0.1

compound: C[C@@H](N)[C@H]1CCN(c2cc3c(cc2F)c(=O)c(C(=O)O)cn3C2CC2)C1
target-under-test: Streptococcus pneumoniae
MIC, mg/L: 0.1

Exam item: Find the recorded MIC belonging to CC(N)C1CCN(c2c(F)cc3c(=O)c(C(=O)O)cn(C4CC4)c3c2C(F)(F)F)C1 (racemic) and report it.
Marked response: 0.006

Exam item: # lookup: MIC of C[C@@H](N)[C@H]1CCN(c2cc3c(cc2F)c(=O)c(C(=O)O)cn3C2CC2)C1 (racemic)
Marked response: 0.013

Exam item: I am curious: what MIC value has been reported for CN[C@H](C)[C@H]1CCN(c2cc3c(cc2F)c(=O)c(C(=O)O)cn3C2CC2)C1 (mixture of isomers) ?
Marked response: 0.05

Exam item: So what's the measured MIC for this one? CN[C@H](C)[C@H]1CCN(c2c(F)c(N)c3c(=O)c(C(=O)O)cn(C4CC4)c3c2F)C1
Marked response: 0.2

Exam item: Fill blank: measured MIC of the compound CN[C@@H](C)[C@@H]1CCN(c2nc3c(cc2F)c(=O)c(C(=O)O)cn3C2CC2)C1 (mixture of isomers) is ____.
Marked response: 0.013

Exam item: Fill in the blank: the reported MIC of CCN[C@H](C)[C@H]1CCN(c2cc3c(cc2F)c(=O)c(C(=O)O)cn3C2CC2)C1 (mixture of isomers; form 1) is ____.
Marked response: 0.2
